Task for the reader: assign each of the following variants its reported protein stability index.
B1: ADAMTSL2 (parent)
chain: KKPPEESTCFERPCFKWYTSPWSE

Variants of: B1
TEST_SUMMARY: protein stability index of a GFP-peptide fusion (GPS, HEK-293T) (PSI 1-6); higher = more stable;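 note: lentivirally expressed fusions sorted by FACS into six bins by GFP to DsRed ratio, PSI derived from sequencing read proportions per bin multiplied by bin number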
APPLIED_CONDITIONS: c terminus: a fixed tail appended

// for each variant in input: emit protein stability index
1. F10G
2. T8D
3. E5T
4. T19K
5. P21F
6. T8P
7. P21A
8. P13F

Found:
1. 2.71
2. 2.61
3. 1.67
4. 2.03
5. 1.78
6. 2.59
7. 2.41
8. 2.18

// for each variant in input: emit protein stability index
1. S7H
2. S20N
3. E6C
4. E6R
5. E6K
6. S7I

Found:
2.51
2.58
2.44
2.05
2.55
2.28

// for each variant in input: emit protein stability index
1. K1N
2. K2W
3. C14S
4. S20P
5. P13Q

Found:
3.12
2.39
2.23
2.04
2.1
